Collected IC50 values appear next to each entry.
# Target Under Test: T1, CD24-GST fusion protein
# T1 chain: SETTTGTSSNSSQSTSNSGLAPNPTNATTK
# Assay Procedure: competitive ELISA
Recorded Metric: IC50

PP6226 (antibody, V domains shown) VH: EVKFEESGGGLVQPGGSIKLSCAASGVTFSEAWMDWVRQSPEKGLEWVAEIRDKTKNYVTYYAESVKGRFTISRDDSKSRVYLQMNNLRTEDTGIYYCTGAMDYWGQGTSVTVSS VL: DIVMTQTPLSLSVTIGQPASISCKSSQSLLYSNGKTYLNWLQQRPGQSPKRLIYQVSKLDPGIPDRFSGSGSETDFTLKISRVEAEDLGIYYCLQGTSYPWTFGGGTKLEIKR ... 0.0814 µg/mL
PP6232 (antibody, V domains shown) VH: EVKFEESGGGLVQPGGSIKLSCAASGVTFSEAWMDWVRQSPEKGLEWVAEIRDKTKNYVTYYAESVKGRFTISRDDSKSRVYLQMNNLRTEDTGIYYCTGAMDYWGQGTSVTVSS VL: DIVMTQTPLSLSVTIGQPASISCKSSQSLLYSNGKTYLNWLQQRPGQSPKRLIYQVSKLDPGTPDRFSGSGSETDFTLKISRVEAEDLGIYYCMQGTSTPWTFGGGTKLEIKR ... 0.0713 µg/mL
PP6233 (antibody, V domains shown) VH: EVKFEESGGGLVQPGGSIKLSCAASGVTFSEAWMDWVRQSPEKGLEWVAEIRDKTKNYVTYYAESVKGRFTISRDDSKSRVYLQMNNLRTEDTGIYYCTGAMDYWGQGTSVTVSS VL: DIVMTQTPLSLSVTIGQPASISCKSSQSLLYSNGKTYLNWLQQRPGQSPKRLIYQVSKLDPGIPDRFSGSGSETDFTLKISRVEAEDLGIYYCMQGASLPWTFGGGTKLEIKR ... 0.0372 µg/mL

Hey, just so you know, these numbers are from patent US20250243292A1.
